Serotonin 2 (5-HT2) receptor (Rattus norvegicus, UniProt P30994+P08909+P14842): recorded Ki for assorted molecules
Kindly provide the numeric value in nM only, without the unit symbol.

chemicalStructure | Ki / nM
CN1CCN(C2=Nc3ccccc3Nc3ncccc32)CC1 | 103
CN1CCN(C2=Nc3ccccc3N(C=O)c3ncccc32)CC1 | 7120
CN1CCN(C2=Nc3ccccc3Nc3ccncc32)CC1 | 29
CN1CCN(C2=Nc3ccccc3N(C=O)c3ccncc32)CC1 | 2053
Cc1cnc2c(c1)N=C(N1CCN(C)CC1)c1ccccc1N2 | 103

Challenge: # lookup: Ki of Cc1ccc2c(c1)C(N1CCN(C)CC1)=Nc1cccnc1N2
Response given: 94

Challenge: Then CN1CCN(C2=Nc3cccnc3Nc3ccc(F)cc32)CC1 ?
Response given: 124

Challenge: Entry CN1CCN(C2=Nc3cc(Cl)ccc3Sc3ccccc32)CC1 please
Response given: 4.1

Challenge: Moving on to the next molecule: CN1CCN(C2=Nc3cccnc3Nc3ccc(Cl)cc32)CC1
Response given: 6.2

Challenge: And for CN1CCN(C2=Nc3cc(F)ccc3Cc3ccccc32)CC1 ?
Response given: 3.8

----------
organism: Rattus norvegicus; experiment: animal or person; details: sc, read-out: Inhibition
This section presents molecules with their documented inhibition in vivo at 20 mg/kg values.
Write it as a number; the unit % goes unstated.

chemicalStructure | inhibition in vivo at 20 mg/kg (%)
CN1CCN(C2=Nc3ccccc3N(C=O)c3ccncc32)CC1 | 0
CN1CCN(C2=Nc3ccccc3Sc3ccc(Cl)cc32)CC1 | 100

Let us move to another entry and its inhibition in vivo at 20 mg/kg.
Challenge: Recorded inhibition in vivo at 20 mg/kg of CN1CCN(C2=Nc3ccccc3N(C=O)c3ncccc32)CC1 , please.
Response given: 0

----------
These records show Ki for Serotonin 2 (5-HT2) receptor (Rattus norvegicus, UniProt P30994+P08909+P14842).

compound | Ki
CN1CCN(C2=Nc3cccnc3N(C=O)c3ccccc32)CC1 | 1870 nM
CN1CCN(C2=Nc3cccnc3Nc3cc(Cl)ccc32)CC1 | 48 nM
CN1CCN(C2=Nc3cccnc3N(C)c3ccccc32)CC1 | 2900 nM
CN1CCN(C2=Nc3ccccc3Sc3ccc(Cl)cc32)CC1 [CLOTHIAPINE] | 0.6 nM
CN1CCN(C2=Nc3cccnc3Nc3ccccc32)CC1 | 124 nM

Turning to the following compound.
Challenge: Which Ki is listed for CN1CCN(C2=Nc3cnccc3Nc3ccccc32)CC1 ?
Response given: 837 nM

----------
molecular target: D(1A) dopamine receptor (Rattus norvegicus, UniProt P18901)
Sequence (P18901 whole entry): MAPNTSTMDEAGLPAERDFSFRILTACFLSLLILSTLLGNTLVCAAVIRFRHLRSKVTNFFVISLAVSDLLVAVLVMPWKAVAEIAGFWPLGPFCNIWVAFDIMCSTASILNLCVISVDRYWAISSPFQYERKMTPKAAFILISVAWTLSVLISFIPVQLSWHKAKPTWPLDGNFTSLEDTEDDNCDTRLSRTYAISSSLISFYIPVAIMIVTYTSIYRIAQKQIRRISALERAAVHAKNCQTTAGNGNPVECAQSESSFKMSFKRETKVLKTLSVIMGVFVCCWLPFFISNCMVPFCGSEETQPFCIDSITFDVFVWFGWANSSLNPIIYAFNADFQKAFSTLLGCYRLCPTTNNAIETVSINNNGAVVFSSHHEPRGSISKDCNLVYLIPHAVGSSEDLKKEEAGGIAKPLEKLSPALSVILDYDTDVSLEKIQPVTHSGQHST
Grouping by measured Ki is done with the following cut points: bucket A: < 300 nM; bucket B: ≥ 300 nM and < 1000 nM; bucket C: ≥ 1000 nM

Example cases with answers are listed next.
chemicalStructure | labelValue
CN1CCN(C2=Nc3ccccc3Nc3ccc(Cl)cc32)CC1 | bucket A
CN1CCN(C2=Nc3cccnc3Nc3cc(Cl)ccc32)CC1 | bucket A
CN1CCN(C2=Nc3ccccc3Nc3ncccc32)CC1 | bucket B

// next entry
Challenge: Just checking, what class would you give CN1CCN(C2=Nc3cccnc3Nc3ccc(F)cc32)CC1 here?
Response given: bucket B

----------
System: Muscarinic acetylcholine receptor | Read-out: log10 of Ki
Heads up: the numbers are on a log10 scale; they represent Ki in nM.

compound | experimentalValue
CN1CCN(C2=Nc3ccccc3Nc3ncccc32)CC1 | 2.48

Challenge: Can you look up the measured log10 of Ki of CN1CCN(C2=Nc3ccccc3Nc3ccncc32)CC1 for me?
Response given: 3.51

Challenge: What do you have for CN1CCN(C2=Nc3ccccc3N(C=O)c3ncccc32)CC1 ?
Response given: 3.53

Challenge: Item: CN1CCN(C2=Nc3ccccc3Sc3ccc(Cl)cc32)CC1 [CLOTHIAPINE]
Response given: 2.13

Challenge: How about CN1CCN(C2=Nc3cccnc3Nc3cc(Cl)ccc32)CC1 ?
Response given: 2.56

Challenge: Then this compound: Cc1ccc2c(c1)C(N1CCN(C)CC1)=Nc1cccnc1N2
Response given: 1.68

----------
Ki, Muscarinic acetylcholine receptor: measured values
Number in nM, nothing else.

chemicalStructure | assaySystem | experimentalValue
CN1CCN(C2=Nc3ccccc3N(C=O)c3ccncc32)CC1 | Muscarinic acetylcholine receptor | 3450
CN1CCN(C2=Nc3cc(F)ccc3Cc3ccccc32)CC1 | Muscarinic acetylcholine receptor | 25
CN1CCN(C2=Nc3cccnc3Nc3ccc(F)cc32)CC1 | Muscarinic acetylcholine receptor | 415
CN1CCN(C2=Nc3cccnc3N(C)c3ccccc32)CC1 | Muscarinic acetylcholine receptor | 175
Cc1cnc2c(c1)N=C(N1CCN(C)CC1)c1ccccc1N2 | Muscarinic acetylcholine receptor | 523
CN1CCN(C2=Nc3cccnc3Nc3ccccc32)CC1 | Muscarinic acetylcholine receptor | 665
CN1CCN(C2=Nc3cccnc3N(C=O)c3ccccc32)CC1 | Muscarinic acetylcholine receptor | 311
CN1CCN(C2=Nc3cnccc3Nc3ccccc32)CC1 | Muscarinic acetylcholine receptor | 430
CN1CCN(C2=Nc3cccnc3Nc3ccc(Cl)cc32)CC1 | Muscarinic acetylcholine receptor | 65
CN1CCN(C2=Nc3ccccc3Nc3ccc(Cl)cc32)CC1 | Muscarinic acetylcholine receptor | 21

Now for another entry.
Challenge: # query: Ki of entry CN1CCN(C2=Nc3cc(Cl)ccc3Sc3ccccc32)CC1
Response given: 5.6

----------
organism: Rattus norvegicus; assay: animal or person; settings: sc, read-out: Inhibition
endpointName: inhibition in vivo at 20 mg/kg (%)
Please respond with the number in % and leave the unit unwritten.

Challenge: I'd like to know its inhibition in vivo at 20 mg/kg. The compound in question is CN1CCN(C2=Nc3cccnc3N(C=O)c3ccccc32)CC1
Response given: 0

----------
Listed here: compounds with reported pKi for D(1A) dopamine receptor (Rattus norvegicus, UniProt P18901).
On this scale, pKi is minus log10 of a concentration expressed in M (mol/L).

compound | pKi
CN1CCN(C2=Nc3ccccc3Nc3ccncc32)CC1 | 6.52

Challenge: Dear colleague, I am looking for the recorded pKi of the following compound: Cc1cnc2c(c1)N=C(N1CCN(C)CC1)c1ccccc1N2
Response given: 5.95

Challenge: Similarly, CN1CCN(C2=Nc3cccnc3N(C)c3ccccc32)CC1 ?
Response given: 5.22

----------
species on record: Rattus norvegicus; assay: animal or person; details: sc, read-out: Inhibition
endpointName: inhibition in vivo at 20 mg/kg (%)
Express it in %; write the number only.

Challenge: Value lookup for inhibition in vivo at 20 mg/kg; key = CN1CCN(C2=Nc3cc(Cl)ccc3Nc3ccccc32)CC1 [CLOZAPINE]
Response given: 0

Challenge: Lookup CN1CCN(C2=Nc3ccccc3Nc3ncccc32)CC1
Response given: 0

Challenge: Param item: CN1CCN(C2=Nc3cccnc3Nc3cc(Cl)ccc32)CC1
Response given: 70

Challenge: Entry to check: CN1CCN(C2=Nc3cccnc3Nc3ccccc32)CC1
Response given: 0

Challenge: Next entry: Cc1ccc2c(c1)C(N1CCN(C)CC1)=Nc1cccnc1N2
Response given: 75

Challenge: Param item: CN1CCN(C2=Nc3cccnc3N(C)c3ccccc32)CC1
Response given: 0

Challenge: Now give it for CN1CCN(C2=Nc3ccccc3Nc3ccncc32)CC1 too.
Response given: 45

----------
Observed Ki, system D(1A) dopamine receptor (Rattus norvegicus).
Express it in nM; write the number only.

Challenge: Form field: Ki recorded for CN1CCN(C2=Nc3cccnc3Nc3ccc(Cl)cc32)CC1 with D(1A) dopamine receptor (Rattus norvegicus) (enter value)
Response given: 2140

Challenge: Record: CN1CCN(C2=Nc3cccnc3N(C=O)c3ccccc32)CC1
Response given: 47900

Challenge: Moving on to the next compound: CN1CCN(C2=Nc3cc(Cl)ccc3Sc3ccccc32)CC1
Response given: 240
